Target: T1, HMMW micropeptide (recombinant, purified from Escherichia coli BL21) (human)
T1 construct: also called purified HMMW micropeptide; human HMMW micropeptide
T1 peptide: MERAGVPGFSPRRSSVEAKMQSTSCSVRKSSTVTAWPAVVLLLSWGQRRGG
Experiment: indirect ELISA, HMMW micropeptide coated at 1 ug/ml, antibody dilution 1:25K
MEASURED PROPERTY: ELISA reading at antibody dilution 1:25K
Lab note: record the figure alone, no unit after it.

| BINDER | REPORTED RESULT |
| --- | --- |
| Anti-HMMW antibody-3 (antibody, V domains shown, Mouse monoclonal antibody from a BALB/c x SP2/0 hybridoma; also called anti-HMMW-3 antibody) VH: EVKLEESGGGLVQPGGSMKLSCVASGFTFSDYWMNWVRQSPEKGLEWLTEIRLKSDNYATHYAESVKGKFTISRDDSKSTVYLQMNNLRAEDTGIYYCSVETMDFWGQGTSVTVSS VL: QAVVTQESALTTSPGETVTLTCRSSIGAVTTNNYANWVQEKPDRLFTGLIRGTNNRVPGVPARFSGSLIGDKAALTITGAQTEDEAIYFCALWYSNHWVFGGGTKLTVL | 3.04 |

Value lookup for ELISA reading at antibody dilution 1:25K; key = Anti-HMMW antibody-2 (antibody, V domains shown, Mouse monoclonal antibody from a BALB/c x SP2/0 hybridoma; also called anti-HMMW-2 antibody) VH: EVKLEESGGGLVQPGGSMKVSCVGSGFTFSNYWMNWVRQSPEKGLEWVAEIRLKSNNYATHYAESVKGRFTISRDDSKRSVYLQMNNLRVEDTGIYYCTTEAVDYWGQGTSVTVSS VL: DIVMTQAAFSNPVTLGTSASISCRSSKSLLHSNGITYLYWYLQKPGQSPQLLIYQMSNLASGVPDRFSSSGSGTDFTLRISRVEAEDVGVYYCAQNLELPTFGGGTKLEIKR
3.19

Value lookup for ELISA reading at antibody dilution 1:25K; key = Anti-HMMW antibody-6 (antibody, V domains shown, Mouse monoclonal antibody from a BALB/c x SP2/0 hybridoma; also called anti-HMMW-6 antibody) VH: EVKLEESGGGLVQPGGSMKLSCVASGFTFSNYWMNWVRQSPEKGLEWVAEIRLKSNNYATHYAESVTGRFTISRDDSKSSVYLQMNNLRAEDTGIYYCTLEAVDYWGQGTSVTVSS VL: DIVMTQAAFSNPVTLGTSASISCRSSKSLLHSDGITYLYWFLQKPGQSPQLLIYQMSNLASGVPDRFSSSGSGTDFTLRISRVEAEDVGVYYCAQNLELPTFGGGTKLEIK
2.55

Value lookup for ELISA reading at antibody dilution 1:25K; key = Anti-HMMW antibody-1 (antibody, V domains shown, Mouse monoclonal antibody from a BALB/c x SP2/0 hybridoma; also called anti-HMMW-1 antibody) VH: EVKLEESGGGLVQPGGSMKFSCVASGFTFSNYWMNWVRQSPERGLEWVAEIKLKSNNYATLYAESVKGRFTISRDDSKSSVYLQVNNLRAEDTGIYYCITEIFDYWGQGTTLTVSS VL: QAVVTQESALTTSPGETVTLTCRSSTGAVTTSNYATWVQEKPDHLFTGLIVGANNRAPGVPARFSGSLIGDKAALTITGAQTEDEAIYFCALWFLNHWVFGGGTKLTVLG
2.13
